# experimental system: HLA-B*18:01
# assay comment: IEDB peptide-MHC binding, purified MHC/competitive/fluorescence; filed as Kd, often an IC50 or EC50 that approximates it; bounds were set here for any values at or beyond the usual limits of such assays
# condition notes: source organism: Bos taurus
outcome measure: Kd

• KLGEGFKSL = ≥ 20 µM

* * *

# experimental system: HLA-B*27:05
# assay comment: IEDB peptide-MHC binding, purified MHC/direct/fluorescence; filed as Kd, often an IC50 or EC50 that approximates it; bounds were set here for any values at or beyond the usual limits of such assays
# condition notes: source organism: Marburg virus - Musoke, Kenya, 1980
outcome measure: Kd

* QVGIFLICK | ≥ 20 µM
* AEILSGRVI | ≥ 20 µM

* * *

# experimental system: HLA-A*33:01
# assay comment: IEDB peptide-MHC binding, purified MHC/competitive/radioactivity; filed as Kd, often an IC50 or EC50 that approximates it; bounds were set here for any values at or beyond the usual limits of such assays
# condition notes: source organism: Vaccinia virus Copenhagen
pKd: −log10 of the molar value.
outcome measure: pKd

* NTIVFGIYK | ≤ 4.11

* * *

# experimental system: HLA-B*40:01
# assay comment: IEDB peptide-MHC binding, purified MHC/competitive/fluorescence; filed as Kd, often an IC50 or EC50 that approximates it; bounds were set here for any values at or beyond the usual limits of such assays
# condition notes: source organism: Salmonella enterica subsp. enterica serovar Typhi
outcome measure: Kd (nM)

• AEFVFSCGI = 8.4

* * *

# experimental system: HLA-A*03:01
# assay comment: IEDB peptide-MHC binding, purified MHC/competitive/fluorescence; filed as Kd, often an IC50 or EC50 that approximates it; bounds were set here for any values at or beyond the usual limits of such assays
# condition notes: source organism: Entamoeba histolytica HM-1:IMSS
pKd: −log10 of the molar value.
outcome measure: pKd

* LICYQIEYI | ≤ 4.70

* * *

# experimental system: HLA-B*15:17
# assay comment: IEDB peptide-MHC binding, purified MHC/competitive/fluorescence; filed as Kd, often an IC50 or EC50 that approximates it; bounds were set here for any values at or beyond the usual limits of such assays
# condition notes: source organism: Orthohantavirus seoulense
pKd: −log10 of the molar value.
outcome measure: pKd

• KPKHLYVSM = ≤ 4.70

* * *

# experimental system: HLA-A*01:01
# assay comment: IEDB peptide-MHC binding, purified MHC/direct/fluorescence; filed as Kd, often an IC50 or EC50 that approximates it; bounds were set here for any values at or beyond the usual limits of such assays
# condition notes: source organism: Tai Forest virus - Cote d'Ivoire, Cote d'Ivoire, 1994
outcome measure: Kd

• FAEGVIAFL = ≥ 20 µM

* * *

# experimental system: HLA-A*01:01
# assay comment: IEDB peptide-MHC binding, purified MHC/direct/fluorescence; filed as Kd, often an IC50 or EC50 that approximates it; bounds were set here for any values at or beyond the usual limits of such assays
# condition notes: source organism: Mammarenavirus lassaense
pKd: −log10 of the molar value.
outcome measure: pKd

* ILNHKFCNL | ≤ 4.70

* * *

# Kd listing for each entry below
# experimental system: HLA-B*08:01
# assay comment: IEDB peptide-MHC binding, purified MHC/direct/fluorescence; filed as Kd, often an IC50 or EC50 that approximates it; bounds were set here for any values at or beyond the usual limits of such assays
# condition notes: source organism: Giardia lamblia ATCC 50803
outcome measure: Kd

* ISYTYNDNW | ≥ 20 µM
* ITFHNQRDF | ≥ 20 µM

# credit: the Immune Epitope Database (IEDB)
